Target: CXCR7 (Homo sapiens)
Sequence (P25106 whole entry): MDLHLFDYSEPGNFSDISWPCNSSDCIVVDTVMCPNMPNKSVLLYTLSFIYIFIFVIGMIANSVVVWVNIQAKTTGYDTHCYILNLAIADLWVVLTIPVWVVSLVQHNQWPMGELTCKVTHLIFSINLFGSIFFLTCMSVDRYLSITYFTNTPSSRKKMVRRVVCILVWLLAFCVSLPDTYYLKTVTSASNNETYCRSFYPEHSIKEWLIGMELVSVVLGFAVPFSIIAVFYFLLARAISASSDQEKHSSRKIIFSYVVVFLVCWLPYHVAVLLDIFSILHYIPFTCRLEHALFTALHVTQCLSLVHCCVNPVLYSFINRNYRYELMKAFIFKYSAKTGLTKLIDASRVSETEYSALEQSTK
Assay: CXCR7 β-arrestin recruitment assay in CHO-CXCR7 cells (ProLink/EA β-galactosidase complementation), induced by human SDF-1a
Conditions: assay buffer, SDF-1a at EC50 concentration
pIC50: −log10 of the molar value.
I'd be grateful if you could share measured pIC50 for these entries.

Ask: Answer with reported pIC50 of Cc1ccc(C(C)(C)NC(=O)CC2(NC(=O)c3cc(-c4ccc(F)cc4F)on3)CN(C3CCCCC3)C2)cn1 [Example 1.281]
Result: 7.00 to 8.30

Ask: Hello, please tell me recorded pIC50 for this one: CC(C)(NC(=O)CC1(NC(=O)c2cc(-c3ccc(F)cc3F)on2)CN(C2CCCCC2)C1)c1ccccc1C(F)(F)F [Example 1.308]
Result: > 8.30

Ask: Read off the recorded pIC50 for O=C(CC1(NC(=O)c2cc(-c3ccc(F)cc3F)on2)CN(C2CCCCC2)C1)N[C@@H](CO)c1ccccc1 [Example 1.310]
Result: 4.70 to 6.00

Ask: Give reported pIC50 value for CC(C)(NC(=O)CC1(NC(=O)c2cc(-c3ccc(F)cc3F)on2)CN(CC2CC2)C1)c1cccc(Cl)c1 [Example 1.113]
Result: 7.00 to 8.30

Ask: Supply measured pIC50 of CC(C)(NC(=O)CC1(NC(=O)c2cc(-c3ccc(F)cc3F)on2)CN([C@H]2CC[C@](C)(O)CC2)C1)c1c[nH]c2ncccc12 [Example 1.097] in your reply.
Result: 7.00 to 8.30

Ask: Supply measured pIC50 of CC(C)(NC(=O)CC1(NC(=O)c2nnc(-c3ccc(F)cc3F)s2)CN([C@H]2CC[C@](C)(O)CC2)C1)c1cc(F)cc(F)c1 [Example 1.028] in your reply.
Result: 7.00 to 8.30

Ask: Find the measured pIC50 of CC(C)(NC(=O)CC1(NC(=O)c2cc(-c3ccc(F)cc3F)on2)CN([C@H]2CC[C@@](C)(O)CC2)C1)c1ccnc(C#N)c1 [Example 1.161] and report it.
Result: 7.00 to 8.30

Ask: Identify measured pIC50 corresponding to Cc1cc(C)nc(C(C)(C)NC(=O)CC2(NC(=O)c3cc(-c4ccc(F)cc4F)on3)CN(C3CC(C)(C)OC(C)(C)C3)C2)n1 [Example 1.355]
Result: > 8.30

Ask: Give me measured pIC50, please, for this compound: CC(C)(NC(=O)CC1(NC(=O)c2nnc(-c3ccc(F)cc3F)s2)CN([C@H]2CC[C@](C)(O)CC2)C1)c1ncccn1 [Example 1.033]
Result: 7.00 to 8.30

Ask: Name the recorded pIC50 of the compound listed here: CC(C)(NC(=O)CC1(NC(=O)c2cnn(-c3ccc(F)cc3F)c2)CN([C@H]2CC[C@](C)(O)CC2)C1)c1cccc(Cl)c1 [Example 1.049]
Result: 4.70 to 6.00

###

Biological target: CXCR7 (Homo sapiens)
Assay: CXCR7 β-arrestin recruitment assay in CHO-CXCR7 cells (ProLink/EA β-galactosidase complementation), induced by human SDF-1a
Conditions: assay buffer, SDF-1a at EC50 concentration
pIC50: −log10 of the molar value.
Task for the reader: assign each of the following compounds its reported pIC50.

Ask: Assign pIC50 to the following record: CC(C)(NC(=O)CC1(NC(=O)c2cc(-c3ccc(F)cc3F)on2)CN([C@H]2CC[C@](C)(O)CC2)C1)c1cnccn1 [Example 1.158]
Result: 7.00 to 8.30

Ask: Give recorded pIC50. CC(C)(NC(=O)CC1(NC(=O)c2cc(-c3ccc(F)cc3F)on2)CN(C2CCCCC2)C1)c1ncccn1 [Example 1.270]
Result: 7.00 to 8.30

Ask: Complete the entry with pIC50 for COc1cc(C)cc(C(C)(C)NC(=O)CC2(NC(=O)c3cc(-c4ccc(F)cc4F)on3)CN([C@H]3CC[C@@](C)(O)CC3)C2)c1 [Example 1.118]
Result: 7.00 to 8.30

Ask: Please list pIC50 recorded for the compound CC(C)(NC(=O)CC1(NC(=O)c2cc(-c3ccc(F)cc3F)on2)CN([C@H]2CC[C@](C)(O)CC2)C1)c1ncccn1 [Example 1.233]
Result: > 8.30

Ask: # return recorded pIC50 for input COC[C@@H](NC(=O)CC1(NC(=O)c2cc(-c3ccc(F)cc3F)on2)CN(C2CCCCC2)C1)c1ccccc1 [Example 1.295]
Result: 6.00 to 7.00

Ask: Let me know recorded pIC50 for CC(C)(NC(=O)CC1(NC(=O)c2cc(-c3ccc(F)cc3F)on2)CN([C@H]2CC[C@@](C)(O)CC2)C1)c1ccnc(C2CC2)c1 [Example 1.146] , thanks.
Result: 7.00 to 8.30

Ask: Quickly give me recorded pIC50 for CC(C)(NC(=O)CC1(NC(=O)c2cc(-c3ccc(F)cc3F)on2)CN(C2CCC3(CCOCC3)CC2)C1)c1ccccn1 [Example 1.102]
Result: 6.00 to 7.00

Ask: Supply recorded pIC50 for CCc1cc(C(C)(C)NC(=O)CC2(NC(=O)c3cc(-c4ccc(F)cc4F)on3)CN([C@H]3CC[C@@](C)(O)CC3)C2)ccn1 [Example 1.148] here.
Result: 7.00 to 8.30

Ask: Identify pIC50 associated with the compound CC(C)(NC(=O)CC1(NC(=O)c2cc(-c3ccc(F)cc3F)on2)CN(C2CCCCC2)C1)c1cccc(F)n1 [Example 1.297]
Result: > 8.30

Ask: Specify measured pIC50 for CCc1cccc(C(C)(C)NC(=O)CC2(NC(=O)c3cc(-c4ccc(F)cc4F)on3)CN([C@H]3CC[C@@](C)(O)CC3)C2)c1 [Example 1.208] .
Result: > 8.30

Ask: Provide pIC50 value for the following compound: CC(C)(NC(=O)CC1(NC(=O)c2cc(-c3ccc(F)cc3F)on2)CN(C2CCCCC2)C1)c1cccc(C(F)(F)F)c1 [Example 1.271]
Result: 6.00 to 7.00

Ask: Check the records and state pIC50 for CC(C)(NC(=O)CC1(NC(=O)c2csc(-c3ccc(F)cc3F)n2)CN([C@H]2CC[C@@](C)(O)CC2)C1)c1cccc(Cl)c1 [Example 1.050]
Result: 4.70 to 6.00

Ask: Complete the entry with pIC50 for COc1cc(C)cc(C(C)(C)NC(=O)CC2(NC(=O)c3nnc(-c4ccc(F)cc4F)s3)CN([C@H]3CC[C@](C)(O)CC3)C2)n1 [Example 1.346]
Result: 7.00 to 8.30

Ask: Specify pIC50 for CC(C)(NC(=O)CC1(NC(=O)c2ncc(-c3ccc(F)cc3F)s2)CN([C@H]2CC[C@](C)(O)CC2)C1)c1cccc(Cl)c1 [Example 1.046] and stop.
Result: 7.00 to 8.30

Ask: Return pIC50 for the following compound: CC(C)(NC(=O)CC1(NC(=O)c2cc(-c3ccc(F)cc3F)sn2)CN([C@H]2CC[C@](C)(O)CC2)C1)c1cccc(Cl)c1 [Example 1.044]
Result: 6.00 to 7.00

Ask: Report pIC50, nothing else, for this compound: CC(C)CN1CC(CC(=O)NC(C)(C)c2ccccn2)(NC(=O)c2cc(-c3ccc(F)cc3F)on2)C1 [Example 1.129]
Result: 7.00 to 8.30

Ask: Supply pIC50 value. Item: CC(C)(NC(=O)CC1(NC(=O)c2cc(-c3ccc(F)cc3F)on2)CN([C@H]2CC[C@](C)(O)CC2)C1)c1cc(F)ccc1F [Example 1.236]
Result: > 8.30

Ask: Provide pIC50 value for the following compound: CC1(CN2CC(CC(=O)NC(C)(C)c3ccccn3)(NC(=O)c3cc(-c4ccc(F)cc4F)on3)C2)COC1 [Example 1.224]
Result: 7.00 to 8.30

Ask: # return recorded pIC50 for input COc1cc(Cl)cc(C(C)(C)NC(=O)CC2(NC(=O)c3cc(-c4ccc(F)cc4F)on3)CN([C@H]3CC[C@@](C)(O)CC3)C2)c1 [Example 1.160]
Result: > 8.30

Ask: Provide one value: measured pIC50 of CC(C)(NC(=O)CC1(NC(=O)c2cc(-c3ccc(F)cc3F)on2)CN([C@H]2CC[C@@](C)(O)CC2)C1)c1cccc(OC(F)(F)F)c1 [Example 1.197]
Result: > 8.30

Ask: Please report the measured pIC50 for CC(C)(NC(=O)CC1(NC(=O)c2cc(-c3ccc(F)cc3F)on2)CN([C@H]2CC[C@@](C)(O)CC2)C1)c1ccccc1C(F)(F)F [Example 1.292]
Result: > 8.30

Ask: Give pIC50 for the following compound: CC(C)(NC(=O)CC1(NC(=O)c2cc(-c3ccc(F)cc3F)on2)CN([C@H]2CC[C@](C)(O)CC2)C1)c1ccncc1 [Example 1.182]
Result: > 8.30

Ask: Consider the compound CC(C)(F)CN1CC(CC(=O)NC(C)(C)c2ccccn2)(NC(=O)c2cc(-c3ccc(F)cc3F)on2)C1 [Example 1.104] and give its recorded pIC50.
Result: 4.70 to 6.00

Ask: Tell me measured pIC50 for COc1cc(Cl)cc(C(C)(C)NC(=O)CC2(NC(=O)c3cc(-c4ccc(F)cc4F)on3)CN(CC(C)(C)O)C2)c1 [Example 1.154] please.
Result: > 8.30
